Target: Nuclear factor NF-kappa-B complex (Homo sapiens) (UniProt Q00653+P19838+Q04206)
Sequence (P19838 whole entry, looked up): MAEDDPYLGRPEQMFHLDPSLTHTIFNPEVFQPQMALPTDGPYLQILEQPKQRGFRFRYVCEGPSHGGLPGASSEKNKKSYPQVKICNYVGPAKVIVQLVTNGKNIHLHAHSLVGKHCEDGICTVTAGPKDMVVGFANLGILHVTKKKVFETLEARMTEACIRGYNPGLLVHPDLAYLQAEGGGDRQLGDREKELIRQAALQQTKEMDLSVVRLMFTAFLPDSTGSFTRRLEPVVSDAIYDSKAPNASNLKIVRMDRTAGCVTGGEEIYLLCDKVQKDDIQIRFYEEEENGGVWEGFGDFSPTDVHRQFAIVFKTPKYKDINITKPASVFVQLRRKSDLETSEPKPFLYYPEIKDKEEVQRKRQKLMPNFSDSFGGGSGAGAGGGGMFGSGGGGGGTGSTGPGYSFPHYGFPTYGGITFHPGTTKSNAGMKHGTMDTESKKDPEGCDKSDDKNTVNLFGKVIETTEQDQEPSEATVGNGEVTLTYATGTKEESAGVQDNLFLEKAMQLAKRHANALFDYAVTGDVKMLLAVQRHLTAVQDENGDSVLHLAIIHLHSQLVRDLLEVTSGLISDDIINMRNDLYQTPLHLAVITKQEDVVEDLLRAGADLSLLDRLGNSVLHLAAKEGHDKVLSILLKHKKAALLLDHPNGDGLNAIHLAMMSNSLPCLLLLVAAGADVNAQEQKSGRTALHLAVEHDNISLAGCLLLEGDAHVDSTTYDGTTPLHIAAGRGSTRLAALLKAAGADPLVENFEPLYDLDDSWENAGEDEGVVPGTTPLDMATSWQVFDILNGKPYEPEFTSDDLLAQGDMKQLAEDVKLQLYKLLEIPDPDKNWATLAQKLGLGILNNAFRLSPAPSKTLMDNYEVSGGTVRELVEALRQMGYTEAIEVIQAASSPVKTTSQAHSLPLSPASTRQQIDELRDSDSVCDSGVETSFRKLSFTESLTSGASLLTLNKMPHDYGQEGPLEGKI
Sequence (Q00653 whole entry, looked up): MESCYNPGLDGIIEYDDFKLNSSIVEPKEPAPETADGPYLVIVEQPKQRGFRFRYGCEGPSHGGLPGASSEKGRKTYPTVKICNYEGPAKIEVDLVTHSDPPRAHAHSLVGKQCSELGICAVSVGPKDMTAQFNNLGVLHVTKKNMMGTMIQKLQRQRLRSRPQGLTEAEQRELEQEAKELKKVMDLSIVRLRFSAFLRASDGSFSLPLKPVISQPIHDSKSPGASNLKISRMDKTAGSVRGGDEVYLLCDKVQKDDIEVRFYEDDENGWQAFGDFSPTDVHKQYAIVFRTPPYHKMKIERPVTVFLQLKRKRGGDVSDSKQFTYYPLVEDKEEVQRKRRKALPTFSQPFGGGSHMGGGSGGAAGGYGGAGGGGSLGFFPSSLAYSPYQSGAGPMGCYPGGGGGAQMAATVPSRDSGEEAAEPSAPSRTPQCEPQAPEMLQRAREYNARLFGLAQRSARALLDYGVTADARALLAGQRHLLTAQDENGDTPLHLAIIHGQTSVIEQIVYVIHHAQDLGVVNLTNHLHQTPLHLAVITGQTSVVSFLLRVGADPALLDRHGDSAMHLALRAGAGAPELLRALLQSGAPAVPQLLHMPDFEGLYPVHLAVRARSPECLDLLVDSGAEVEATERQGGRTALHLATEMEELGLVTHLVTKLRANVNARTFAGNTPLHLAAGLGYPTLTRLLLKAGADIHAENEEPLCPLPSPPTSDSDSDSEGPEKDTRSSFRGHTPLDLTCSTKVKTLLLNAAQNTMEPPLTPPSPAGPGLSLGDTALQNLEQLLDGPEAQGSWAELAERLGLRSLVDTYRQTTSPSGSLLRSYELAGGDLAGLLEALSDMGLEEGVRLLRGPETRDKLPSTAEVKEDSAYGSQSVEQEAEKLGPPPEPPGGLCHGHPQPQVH
Sequence (Q04206 whole entry, looked up): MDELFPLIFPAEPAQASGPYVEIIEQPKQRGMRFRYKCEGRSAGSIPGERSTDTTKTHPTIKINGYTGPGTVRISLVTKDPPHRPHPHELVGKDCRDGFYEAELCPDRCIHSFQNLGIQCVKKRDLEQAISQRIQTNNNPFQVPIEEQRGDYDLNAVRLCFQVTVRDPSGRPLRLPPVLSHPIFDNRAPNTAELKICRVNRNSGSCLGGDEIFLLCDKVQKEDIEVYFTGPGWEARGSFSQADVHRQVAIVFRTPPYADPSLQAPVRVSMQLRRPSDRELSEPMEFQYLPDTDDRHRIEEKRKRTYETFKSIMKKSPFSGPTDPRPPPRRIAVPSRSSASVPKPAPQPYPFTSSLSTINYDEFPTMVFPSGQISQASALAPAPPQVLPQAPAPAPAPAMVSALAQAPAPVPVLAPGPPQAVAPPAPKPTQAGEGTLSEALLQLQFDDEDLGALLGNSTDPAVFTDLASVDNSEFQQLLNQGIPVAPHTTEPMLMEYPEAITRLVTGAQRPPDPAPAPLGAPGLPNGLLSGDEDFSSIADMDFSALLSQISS
Assay: Inhibition of NFkappaB (unknown origin) expressed in LPS-stimulated HEK293-NF-kappaB-luc cells assessed as luminescence signals measured by relative light units at 1 ug/mL pre-treated for 4 hrs before LPS challenge for 24 hrs by luciferase assay
Assay type: cell-based
Please mark 1 if the recorded RLU is equal to or greater than 0.08, and -1 if it falls below.

Worked cases, answers included:
[[record]]
molecule = "CC1(C)CC[C@]2(C(=O)O[C@@H]3O[C@H](CO)[C@@H](O)[C@H](O)[C@H]3O)CC[C@]3(C)C(=CC[C@@H]4[C@@]5(C)CC[C@H](O[C@@H]6O[C@H](CO)[C@@H](O)[C@H](O)[C@H]6O[C@@H]6O[C@H](CO)[C@@H](O)[C@H](O)[C@H]6O)C(C)(C)[C@@H]5CC[C@]43C)[C@@H]2C1"
class_assignment = 1

[[record]]
molecule = "C[C@H]1[C@H]2[C@H]3CC[C@@H]4[C@@]5(C)CC[C@H](O[C@@H]6O[C@H](CO)[C@@H](O)[C@H](O)[C@H]6O)C(C)(C)[C@@H]5CC[C@@]4(C)[C@]3(C)CC[C@@]2(CO)CC[C@]1(C)O"
class_assignment = 1

[[record]]
molecule = "CC1(C)CC[C@]2(C(=O)O[C@@H]3O[C@H](CO)[C@@H](O)[C@H](O)[C@H]3O)[C@H](O)C[C@]3(C)C(=CC[C@@H]4[C@@]5(C)CC[C@H](O[C@@H]6O[C@H](CO)[C@@H](O)[C@H](O)[C@H]6OS(=O)(=O)O)C(C)(C)[C@@H]5CC[C@]43C)[C@@H]2C1"
class_assignment = -1

[[record]]
molecule = "CC1(C)C=C2[C@H]3CC[C@@H]4[C@@]5(C)CC[C@H](O[C@@H]6O[C@H](CO)[C@@H](O)[C@H](O)[C@H]6O[C@@H]6O[C@H](CO)[C@@H](O)[C@H](O)[C@H]6O)C(C)(C)[C@@H]5CC[C@@]4(C)[C@]3(C)CC[C@@]2(C(=O)O[C@@H]2O[C@H](CO)[C@@H](O)[C@H](O)[C@H]2O)CC1"
class_assignment = -1

[[record]]
molecule = "C[C@]12CCC(=O)C=C1CC[C@@H]1[C@@H]2[C@@H](O)C[C@@]2(C)[C@H]1CC[C@]2(O)C(=O)CO"
class_assignment = 1


INPUT: Assess whether reported RLU for C=CC(C)(O)CC/C=C(\C)CC/C=C(\C)CO[C@@H]1O[C@H](CO)[C@@H](O)[C@H](O)[C@H]1O (some centres not stated) sits at 0.08 or higher.
OUTPUT: -1

----------
Molecular target: Nuclear factor NF-kappa-B complex (Homo sapiens) (UniProt Q00653+P19838+Q04206)
Assay: Inhibition of NFkappaB (unknown origin) expressed in LPS-stimulated HEK293-NF-kappaB-luc cells assessed as luminescence signals measured by relative light units at 1 ug/mL pre-treated for 4 hrs before LPS challenge for 24 hrs by luciferase assay
Type: cell-based
Active and inactive are the calls of the source. The rule behind the calls is not given here.
readout: Activity

[[record]]
molecular_string = "C=C(C)[C@@H]1CC[C@]2(C(=O)O[C@@H]3O[C@H](CO)[C@@H](O)[C@H](O)[C@H]3O)CC[C@]3(C)[C@H](CC[C@@H]4[C@@]5(C)CC[C@H](O[C@@H]6O[C@H](CO)[C@@H](O)[C@H](O)[C@H]6O)C(C)(C)[C@@H]5CC[C@]43C)[C@@H]12"
assayed_target = "Nuclear factor NF-kappa-B complex (Homo sapiens) (UniProt Q00653+P19838+Q04206)"
result = "inactive"

[[record]]
molecular_string = "CC1(C)CC[C@]2(C(=O)O[C@@H]3O[C@H](CO)[C@@H](O)[C@H](O)[C@H]3O)[C@@H](O)C[C@]3(C)C(=CC[C@@H]4[C@@]5(C)CC[C@H](O[C@@H]6O[C@H](CO)[C@@H](O)[C@H](O)[C@H]6O)C(C)(C)[C@@H]5CC[C@]43C)[C@@H]2C1"
assayed_target = "Nuclear factor NF-kappa-B complex (Homo sapiens) (UniProt Q00653+P19838+Q04206)"
result = "inactive"

[[record]]
molecular_string = "CC1(C)CC[C@]2(C(=O)O[C@@H]3O[C@H](CO)[C@@H](O)[C@H](O)[C@H]3O)[C@H](O)C[C@]3(C)C(=CC[C@@H]4[C@@]5(C)CC[C@H](O[C@@H]6O[C@H](CO)[C@@H](O)[C@H](O)[C@H]6O[C@@H]6O[C@H](CO)[C@@H](O)[C@H](O)[C@H]6O)C(C)(C)[C@@H]5CC[C@]43C)[C@@H]2C1"
assayed_target = "Nuclear factor NF-kappa-B complex (Homo sapiens) (UniProt Q00653+P19838+Q04206)"
result = "inactive"


Just for reference, ChEMBL document CHEMBL3351808 is where these values come from.
